experiment: qHTS Assay to Find Inhibitors of Chronic Active B-Cell Receptor Signaling: Hit Validation in Primary Screen; also: nearly all actives have a fitted effect of over 75% in size
test-conditions: ABC-DLBCL IkB-luc/CBR ratio luminescence, 4 h; series mostly up to 46.1 µM
Text: Diffuse large B-cell lymphoma (DLBCL) is the most common category of non-Hodgkin lymphoma, with ~20,000 new cases per year in the United States. DLBCL should be regarded as a collection of different neoplasms. […] Following the addition of doxycycline to induce expression of the luciferases, the green luminescence in control cultures rises only slowly because the CBG fusion partner IkappaBalpha is targeted by IKK activity for rapid degradation. […]
In all, about 1,200 compounds went through this assay and about 480 (40%) were called active. Roughly 29% stayed inconclusive and do not appear here. Calls follow the shape of the dose curve; as a rule, active = well fitted inhibition curve with a large enough effect; inconclusive = small, poorly fitted or top-dose-only effect; inactive = no such curve, though single readings can be large or run the other way. The list shows a part of the results.
Possible outcomes: T = active, F = inactive

INSERT INTO assay_data (compound, assigned_label) VALUES
  ('Cc1ccc(NC(=S)NNC(=S)Nc2ccc(C)cc2C)cc1', 'T'),
  ('C=CCn1c(SCC(=O)Nc2cccc(S(N)(=O)=O)c2)nc2sc(C)c(C)c2c1=O', 'T'),
  ('COc1ccc(NC(=S)N=Nc2c(O)[nH]c3ccccc23)cc1', 'F'),
  ('C=CCn1c(SC2CCOC2=O)nc2sc(C)c(C)c2c1=O (stereo not given)', 'F'),
  ('C=CCNC(=S)N/N=C/c1ccc(C)cc1C', 'F'),
  ('O=C(CSc1cccc[n+]1[O-])c1ccc(Cl)s1', 'F'),
  ('CC[C@]12c3[nH]c4cc(CCC(=O)N(C)C)ccc4c3CCN1C(=O)[C@@H](CC(=O)NC/C=C(\C)CCC=C(C)C)C[C@@H]2C(=O)N1CCN(C(=O)c2ccco2)CC1', 'F'),
  ('CCCCC[C@H](O)/C=C/[C@@H]1[C@@H](C/C=C\CCCC(=O)O)[C@@H](O)C[C@H]1O', 'T'),
  ('C=CCOc1c(OC)cc(/C=N/Nc2cccc(C(=O)O)c2)c(Br)c1Br', 'T'),
  ('COC(=O)Nc1nc2ccc(Sc3ccccc3)cc2[nH]1', 'F');

Source: PubChem BioAssay AID651558
